Target: human cathepsin B (Homo sapiens, UniProt P07858)
Test: Cathepsin B inhibition assay
Assay type: biochemical
pIC50: −log10 of the molar value. Numbered stars: 1 amine (or outer) side, 2 acyl side, 3 side chain; on linkers, the order of the positions; unused ones are H or OH. Bridge positions count the residues as written; N and C are the ends. Square brackets hold non-standard residues; d marks the D form. Ends that are not written are not given here. X1 = CSCCC(N[*:1])C(=O)C(=O)[*:2]

- Substance: "GTVTGSILTPIDYGCFNPFLCSVA[X1]GGVIDPIRFPNAWREL (disulfide 15-21) [Compound 3, G-RcsA*-Tyn]"
  pIC50: 5.43

These entries and their values trace back to paper PMC11626197.
